# System: adriamycin/doxorubicin-resistant MCF-7 cell line
# run-description: Clonigenic tumor-cell killing assay, doxorubicin-resistant MCF-7 (14C-glucose, Bactec, day 9)
# Format: cell-based, human
# test-parameters: Homo sapiens, MCF7, 216 h; day 9
value-kind: pIC50
The read-out pIC50 is expressed as -log10 of concentration in moles per litre.

I would be grateful if you could share the reported pIC50 for COc1cccc2c1C(=O)c1c(O)c3c(c(O)c1C2=O)C[C@@](O)(C(=O)CO)C[C@@H]3O[C@H]1C[C@H](N)[C@H](O)[C@H](C)O1 .
4.65

###

# run-description: physchem
# test-parameters: water
value-kind: solubility (mg/mL)
Give a bare numeral; the unit mg/mL is implied.

I would be grateful if you could share the reported solubility for CC(=O)N(O)CCCCCNC(=O)CCC(=O)N(O)CCCCCNC(=O)CCC(=O)N(O)CCCCCN .
320
